# TARGET_DESC: Cytochrome P450 2C9 (Homo sapiens, UniProt P11712)
# Sequence (P11712 whole entry): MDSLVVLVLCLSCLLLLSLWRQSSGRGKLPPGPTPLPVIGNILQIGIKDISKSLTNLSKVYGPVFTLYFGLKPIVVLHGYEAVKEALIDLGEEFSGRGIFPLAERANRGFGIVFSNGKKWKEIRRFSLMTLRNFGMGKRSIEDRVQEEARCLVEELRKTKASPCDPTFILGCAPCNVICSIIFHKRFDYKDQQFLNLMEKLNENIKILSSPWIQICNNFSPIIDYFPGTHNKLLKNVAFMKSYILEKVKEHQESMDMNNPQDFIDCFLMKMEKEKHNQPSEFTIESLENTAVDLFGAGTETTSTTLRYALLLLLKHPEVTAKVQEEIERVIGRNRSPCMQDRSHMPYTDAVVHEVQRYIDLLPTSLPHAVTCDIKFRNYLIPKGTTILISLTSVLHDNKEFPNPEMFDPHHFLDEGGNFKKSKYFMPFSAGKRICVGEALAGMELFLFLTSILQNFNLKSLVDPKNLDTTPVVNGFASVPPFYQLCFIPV
# TEST_SUMMARY: Inhibition of CYP2C9
MEASURE: pEC50
Keep it numeric: pEC50 is minus log10 of the concentration in mol/L.

As a guide, the following entries are already answered.
>>> print(df.to_string())
                              smiles_record  measure  reported_result
0  Cn1cncc1C(=O)N(Cc1cc(=O)[nH]c2c(F)c(F)ccc12)c1cccc(Cl)c1    pEC50             4.60
1  Cc1ncsc1C(=O)N(Cc1c[n+]([O-])cc2c(F)c(F)ccc12)c1cccc(Cl)c1    pEC50             4.26
2  Cc1ncsc1C(=O)N(Cc1cc(=O)[nH]c2c(F)c(F)ccc12)c1cccc(Cl)c1    pEC50             4.66

Now look at this one.
Inquiry: Form field: pEC50 recorded for Cc1ncsc1C(=O)N(Cc1cc(=O)[nH]c2c(F)cccc12)c1cccc(Cl)c1 with Cytochrome P450 2C9 (Homo sapiens, UniProt P11712) (enter value)
Reply text: 4.48

---

# TARGET_DESC: Cytochrome P450 2C19 (Homo sapiens, UniProt P33261)
# Sequence (P33261 whole entry): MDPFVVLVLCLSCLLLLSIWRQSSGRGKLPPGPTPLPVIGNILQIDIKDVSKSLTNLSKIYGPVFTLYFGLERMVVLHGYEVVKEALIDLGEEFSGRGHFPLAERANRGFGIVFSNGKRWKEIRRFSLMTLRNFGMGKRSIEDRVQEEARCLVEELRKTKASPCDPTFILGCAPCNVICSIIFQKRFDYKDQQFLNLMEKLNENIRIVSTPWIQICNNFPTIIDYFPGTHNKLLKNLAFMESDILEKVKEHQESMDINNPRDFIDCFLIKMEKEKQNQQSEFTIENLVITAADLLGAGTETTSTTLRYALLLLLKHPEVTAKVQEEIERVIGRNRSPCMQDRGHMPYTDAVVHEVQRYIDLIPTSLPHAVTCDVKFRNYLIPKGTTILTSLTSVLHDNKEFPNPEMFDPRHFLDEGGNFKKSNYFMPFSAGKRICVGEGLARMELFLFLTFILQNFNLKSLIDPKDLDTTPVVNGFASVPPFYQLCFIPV
# TEST_SUMMARY: Inhibition of CYP2C19
The label is rule met for EC50 below 20 µM and rule not met for EC50 equal to or exceeding 20 µM.

Worked set:
>>> print(df.to_string())
                              smiles_record   label_class
0  CC1=C(C(=O)N(Cc2cc(=O)[nH]c3c(F)c(F)ccc23)c2cccc(Cl)c2)CNCC1  rule not met
1  CC(C)C(=O)N(Cc1cc(=O)[nH]c2c(F)cccc12)c1cccc(Cl)c1  rule not met
2  Cn1cncc1C(=O)N(Cc1cc(=O)[nH]c2c(F)c(F)ccc12)c1cccc(Cl)c1      rule met
3  Cc1ncsc1C(=O)N(Cc1cc(=O)[nH]c2c(F)c(F)ccc12)c1cccc(Cl)c1      rule met
4  Cc1ncsc1C(=O)N(Cc1c[n+]([O-])cc2c(F)c(F)ccc12)c1cccc(Cl)c1  rule not met

Now look at this one.
Inquiry: Just wondering, is EC50 of Cc1ncsc1C(=O)N(Cc1cc(=O)[nH]c2c(F)cccc12)c1cccc(Cl)c1 below 20 µM?
Reply text: rule met

---

Catalogue of Tmax readings, one per entry.
# TEST_SUMMARY: Tmax in mouse at 10 mg/kg, po
# Assay type: ADME, organism-based
# Set-up: dose 10 mg/kg, route oral
# CONDITION_INFO: in vivo
The response must be a number in min with no trailing unit.

>>> print(df.to_string())
                              smiles_record  reported_result
0  Cn1cncc1C(=O)N(Cc1cc(=O)[nH]c2c(F)c(F)ccc12)c1cccc(Cl)c1               15

Inquiry: What value of Tmax has been recorded for this entry: Cc1ncsc1C(=O)N(Cc1cc(=O)[nH]c2c(F)cccc12)c1cccc(Cl)c1
Reply text: 30

---

# TARGET_DESC: Cytochrome P450 2D6 (Homo sapiens, UniProt P10635)
# Sequence (P10635 whole entry): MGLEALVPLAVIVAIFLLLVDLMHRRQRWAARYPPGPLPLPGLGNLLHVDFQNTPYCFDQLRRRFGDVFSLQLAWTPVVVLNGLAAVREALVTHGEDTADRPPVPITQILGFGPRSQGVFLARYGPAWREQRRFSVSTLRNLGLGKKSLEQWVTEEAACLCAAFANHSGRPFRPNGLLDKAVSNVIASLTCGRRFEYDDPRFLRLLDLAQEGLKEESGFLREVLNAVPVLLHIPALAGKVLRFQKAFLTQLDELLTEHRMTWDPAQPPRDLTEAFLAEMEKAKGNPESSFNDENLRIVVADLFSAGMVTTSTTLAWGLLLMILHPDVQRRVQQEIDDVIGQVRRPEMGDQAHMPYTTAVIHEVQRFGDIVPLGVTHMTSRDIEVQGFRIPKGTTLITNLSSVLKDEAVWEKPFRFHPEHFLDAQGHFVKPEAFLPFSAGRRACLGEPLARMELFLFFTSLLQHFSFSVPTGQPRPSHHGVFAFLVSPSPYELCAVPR
# TEST_SUMMARY: Inhibition of CYP2D6
MEASURE: EC50

As a guide, the following entries are already answered.
>>> print(df.to_string())
                              smiles_record  reported_result
0  Cn1cncc1C(=O)N(Cc1cc(=O)[nH]c2c(F)c(F)ccc12)c1cccc(Cl)c1            21 µM
1  Cc1ncsc1C(=O)N(Cc1cc(=O)[nH]c2c(F)c(F)ccc12)c1cccc(Cl)c1         > 100 µM
2  Cc1ncsc1C(=O)N(Cc1cc(=O)[nH]c2c(F)cccc12)c1cccc(Cl)c1         > 100 µM

Inquiry: Form field: EC50 recorded for CC(C)C(=O)N(Cc1cc(=O)[nH]c2c(F)cccc12)c1cccc(Cl)c1 with Cytochrome P450 2D6 (Homo sapiens, UniProt P10635) (enter value)
Reply text: > 100 µM

Inquiry: One more molecule: Cc1ncsc1C(=O)N(Cc1c[n+]([O-])cc2c(F)c(F)ccc12)c1cccc(Cl)c1
Reply text: > 100 µM

Inquiry: One more molecule: CC1=C(C(=O)N(Cc2cc(=O)[nH]c3c(F)c(F)ccc23)c2cccc(Cl)c2)CNCC1
Reply text: > 100 µM
